# Tgt: recombinant human NKp30 extracellular domain, his-tagged (human) (UniProt O14931)
# Sequence (O14931 19-135): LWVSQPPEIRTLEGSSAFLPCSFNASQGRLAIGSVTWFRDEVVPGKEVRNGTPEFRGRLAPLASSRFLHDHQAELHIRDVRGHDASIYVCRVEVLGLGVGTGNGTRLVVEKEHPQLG
# Protocol details: BLI, SEEDbody on anti-human Fc sensors, soluble NKp30, 1:1 fit
Reported metric: kon (M⁻¹ s⁻¹)

Binder	Assay value
VHH1 SEEDbody eff- (bispecific antibody, part only; not given: silenced SEED Fc and cetuximab Fab, V domains shown, not shown: another chain or arm of the molecule; a dimerising Fc or GST; small tags and cut ends) VHH: DVQLQESGGGLVQPGGSLRLSCATSGFTLDDYTIGWVRQAPGKEHEGVSCFSPSDGTTYYADSVKGRFTFSRDNAKNTVYLQMNSLKPEDTAVYYCAASFADGSSWCYDYWGQGTQVTVSS	819000
VHH8 SEEDbody eff- (bispecific antibody, part only; not given: silenced SEED Fc and cetuximab Fab, V domains shown, not shown: another chain or arm of the molecule; a dimerising Fc or GST; small tags and cut ends) VHH: DVQLQESGGGLAQPGGSLRLSCAASGFTFSSYDMGWYRQAPGKECELVAAIFSADGSTIYADSVKGRFTISSDNAKNTVFLQMNSLKPEDTAVYYCNKAPPFTTIQPMCVMIDTQLGAWGQGTQVTVSS	416000
